These measurements were taken from patent US20240122865A1.

Reported Conc. chi18#1 values for a set of compounds
System: Chi18 model RNA
Experiment: TapeStation Assay, Chi18 model RNA
Type: biochemical, Trichoderma atroviride
Details: intact Chi18 RNA after 15 min at 50° C., 20 mM amino acids in 50 mM CAPS pH 11, run #1

{"COMPOUND": "O=C(O)[C@@H]1CCCN1", "TESTED_ON": "Chi18 model RNA", "Conc. chi18#1": 19.7}
{"COMPOUND": "O[C@H](CS)[C@H](O)CS (racemic)", "TESTED_ON": "Chi18 model RNA", "Conc. chi18#1": 5.68}
{"COMPOUND": "C[C@@H](O)[C@H](N)C(=O)O", "TESTED_ON": "Chi18 model RNA", "Conc. chi18#1": 27.4}
{"COMPOUND": "N[C@@H](CSSC[C@H](N)C(=O)O)C(=O)O", "TESTED_ON": "Chi18 model RNA", "Conc. chi18#1": 28.3}
{"COMPOUND": "N[C@@H](Cc1c[nH]c2ccccc12)C(=O)O", "TESTED_ON": "Chi18 model RNA", "Conc. chi18#1": 1.57}
{"COMPOUND": "O=C(O)[C@@H]1C[C@@H](O)CN1 [Hydroxyproline]", "TESTED_ON": "Chi18 model RNA", "Conc. chi18#1": 9.2}
{"COMPOUND": "N[C@@H](CCC(=O)N[C@@H](CS)C(=O)NCC(=O)O)C(=O)O", "TESTED_ON": "Chi18 model RNA", "Conc. chi18#1": 15.6}
{"COMPOUND": "O=C(O)CCP(CCC(=O)O)CCC(=O)O", "TESTED_ON": "Chi18 model RNA", "Conc. chi18#1": 1.41}
{"COMPOUND": "N[C@@H](Cc1ccc(O)cc1)C(=O)O", "TESTED_ON": "Chi18 model RNA", "Conc. chi18#1": 17}
{"COMPOUND": "CC(C)C[C@H](N)C(=O)O", "TESTED_ON": "Chi18 model RNA", "Conc. chi18#1": 16.4}
{"COMPOUND": "N=C(N)NCCC[C@H](N)C(=O)O", "TESTED_ON": "Chi18 model RNA", "Conc. chi18#1": 2.78}
